Please provide measured GI50 for the entries that follow.
Target: Ba/F3 EGFR-Del19/T790M (Homo sapiens, UniProt P00533, T790M, cells depend on it, form not given)
Sequence (P00533 with tags, fused parts or gaps DEL746-750/T790M, form open): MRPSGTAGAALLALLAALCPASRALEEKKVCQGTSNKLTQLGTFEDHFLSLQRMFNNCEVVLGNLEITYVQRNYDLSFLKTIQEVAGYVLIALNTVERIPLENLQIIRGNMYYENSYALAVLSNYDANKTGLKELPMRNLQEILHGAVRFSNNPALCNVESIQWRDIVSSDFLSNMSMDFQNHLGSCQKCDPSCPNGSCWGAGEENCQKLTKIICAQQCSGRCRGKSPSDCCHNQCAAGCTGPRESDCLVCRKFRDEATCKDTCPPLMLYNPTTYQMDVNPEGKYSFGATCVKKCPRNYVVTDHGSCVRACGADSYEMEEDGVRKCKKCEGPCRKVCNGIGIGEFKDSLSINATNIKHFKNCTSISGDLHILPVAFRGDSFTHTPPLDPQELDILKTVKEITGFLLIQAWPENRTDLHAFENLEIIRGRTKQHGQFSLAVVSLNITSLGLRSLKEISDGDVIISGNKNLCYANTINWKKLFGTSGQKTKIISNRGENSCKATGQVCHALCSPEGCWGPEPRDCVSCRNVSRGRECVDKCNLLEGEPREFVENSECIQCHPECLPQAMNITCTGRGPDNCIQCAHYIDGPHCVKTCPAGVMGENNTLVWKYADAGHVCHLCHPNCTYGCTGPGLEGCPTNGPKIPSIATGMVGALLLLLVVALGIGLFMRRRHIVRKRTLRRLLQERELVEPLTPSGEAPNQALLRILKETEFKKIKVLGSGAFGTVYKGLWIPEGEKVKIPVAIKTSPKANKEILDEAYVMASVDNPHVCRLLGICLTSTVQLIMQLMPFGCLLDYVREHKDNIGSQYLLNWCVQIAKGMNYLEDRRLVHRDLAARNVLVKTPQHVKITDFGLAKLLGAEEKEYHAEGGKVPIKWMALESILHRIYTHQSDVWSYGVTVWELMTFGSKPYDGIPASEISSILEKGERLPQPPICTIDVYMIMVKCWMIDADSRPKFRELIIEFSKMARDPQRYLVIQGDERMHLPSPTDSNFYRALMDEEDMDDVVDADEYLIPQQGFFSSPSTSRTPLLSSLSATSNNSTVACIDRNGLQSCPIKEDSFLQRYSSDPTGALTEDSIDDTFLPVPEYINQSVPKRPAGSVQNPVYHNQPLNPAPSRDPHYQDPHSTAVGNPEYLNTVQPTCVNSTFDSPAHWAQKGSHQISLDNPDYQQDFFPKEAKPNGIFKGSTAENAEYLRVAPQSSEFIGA
Assay: Ba/F3 viability assay (CellTiter-Glo), EGFR-Del19/T790M (DT)
Type: cell-based
Settings: Ba/F3 EGFR-Del19/T790M anti-proliferation; read-out: BAF3 DT IC50

Q: Quick one: GI50 for CCOc1nn(C2CC3CCC(C2)O3)cc1-c1cnc2cc1O[C@@H](C)CCOc1c(cnn1C)-c1nccc(n1)N2 (some centres unmarked) ?
A: < 50 nM

Q: And CC(C)n1cc(-c2cnc3cc2O[C@@H](C)CCOc2c(cnn2C)-c2nccc(n2)N3)c(OCC(F)F)n1 ?
A: < 50 nM

Q: Next compound up: CCOc1ncc(C)cc1-c1cnc2cc1O[C@@H](C)CCOc1c(cnn1C)-c1nccc(n1)N2
A: 100 to 1000 nM

Q: Now try CCOc1nn(-c2ccncc2)cc1-c1cnc2cc1O[C@@H](C)CCOc1c(cnn1C)-c1nccc(n1)N2 .
A: 50 to 100 nM

Q: Another compound to check: CCOc1nn(C2CC(C)(C)OC(C)(C)C2)cc1-c1cnc2cc1O[C@@H](C)CCOc1c(cnn1C)-c1nccc(n1)N2
A: 50 to 100 nM

Q: // same read-out, input: C[C@H]1CCOc2c(cnn2C)-c2nccc(n2)Nc2cc(c(-c3ccc(CN4CCN(C)CC4)c(OCC(F)(F)F)c3)cn2)O1
A: < 50 nM

Q: Now consider CCOc1nn(C2CCN(C)CC2F)cc1-c1cnc2cc1O[C@@H](C)CCOc1c(cnn1C)-c1nccc(n1)N2 (some centres unmarked) and answer again.
A: < 50 nM

Q: For C[C@H]1CCOc2c(cnn2C)-c2nccc(n2)Nc2cc(c(-c3cnn(C4CCNCC4)c3)cn2)O1 then?
A: < 50 nM

Q: Input CCOc1nn(C2CC2)cc1-c1cnc2cc1O[C@@H](C)CCOc1c(cnn1C)-c1nccc(n1)N2
A: < 50 nM

Q: Queued: CCOc1nn(C2CC2CN2CCOCC2)cc1-c1cnc2cc1O[C@@H](C)CCOc1c(cnn1C)-c1nccc(n1)N2 (some centres unmarked)
A: < 50 nM

Q: Moving on to C[C@H]1CCOc2c(cnn2C)-c2nccc(n2)Nc2cc(c(-c3cc(CN4CCOCC4)n(C)n3)cn2)O1
A: < 50 nM

* * *

Target: EGFR^L858R (Homo sapiens, UniProt P00533, L858R)
Sequence (P00533 25-1210 L858R): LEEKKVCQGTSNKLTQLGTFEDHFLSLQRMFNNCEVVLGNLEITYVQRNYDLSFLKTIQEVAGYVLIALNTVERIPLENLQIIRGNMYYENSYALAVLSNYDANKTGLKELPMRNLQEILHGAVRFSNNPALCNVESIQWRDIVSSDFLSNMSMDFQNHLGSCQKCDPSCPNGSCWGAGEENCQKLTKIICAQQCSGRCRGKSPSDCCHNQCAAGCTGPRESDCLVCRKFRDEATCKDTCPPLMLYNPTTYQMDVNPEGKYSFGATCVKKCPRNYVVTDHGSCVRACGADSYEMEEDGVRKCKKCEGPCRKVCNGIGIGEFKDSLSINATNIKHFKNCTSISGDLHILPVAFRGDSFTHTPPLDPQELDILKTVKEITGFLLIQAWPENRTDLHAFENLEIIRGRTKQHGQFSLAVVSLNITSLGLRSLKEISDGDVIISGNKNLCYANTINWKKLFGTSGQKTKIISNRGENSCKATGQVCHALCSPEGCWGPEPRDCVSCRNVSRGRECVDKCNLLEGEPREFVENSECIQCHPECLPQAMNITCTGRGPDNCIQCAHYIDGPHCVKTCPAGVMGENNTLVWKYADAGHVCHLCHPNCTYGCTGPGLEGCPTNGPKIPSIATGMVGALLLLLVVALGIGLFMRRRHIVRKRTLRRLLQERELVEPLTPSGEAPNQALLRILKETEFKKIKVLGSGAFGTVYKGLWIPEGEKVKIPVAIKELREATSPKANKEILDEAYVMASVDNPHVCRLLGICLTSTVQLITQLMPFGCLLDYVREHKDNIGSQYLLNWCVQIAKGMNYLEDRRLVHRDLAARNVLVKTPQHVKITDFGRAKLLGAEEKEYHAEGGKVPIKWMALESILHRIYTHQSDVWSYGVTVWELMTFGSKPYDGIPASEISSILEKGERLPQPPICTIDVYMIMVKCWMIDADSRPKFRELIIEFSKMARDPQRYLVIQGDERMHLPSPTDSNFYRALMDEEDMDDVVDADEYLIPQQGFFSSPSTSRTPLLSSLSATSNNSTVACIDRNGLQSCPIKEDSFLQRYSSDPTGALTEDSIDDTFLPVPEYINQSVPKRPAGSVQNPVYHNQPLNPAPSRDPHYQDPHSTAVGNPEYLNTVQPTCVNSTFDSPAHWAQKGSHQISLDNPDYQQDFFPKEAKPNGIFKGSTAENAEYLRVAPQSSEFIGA
Test: HTRF KinEASE-TK in vitro kinase assay, EGFR L858R (L)
Settings: EGFR L858R kinase inhibition
pIC50: −log10 of the molar value.
endpointName: pIC50

Q: Please give the measured pIC50 for this molecule: C[C@H]1CCOc2c(cnn2C)-c2nccc(n2)Nc2cc(c(-c3ccc4c(ccn4C)c3)cn2)O1
A: 7.00 to 7.30

Q: Moving on to C[C@H]1CCOc2c(cnn2C)-c2nccc(n2)Nc2cc(c(-c3ccnn3CCN3CCOCC3)cn2)O1
A: ≤ 6.00

Q: Let us now turn to C[C@H]1CCOc2c(cnn2C)-c2nccc(n2)Nc2cc(c(-c3cnc(N4CCN(C)CC4)n3C)cn2)O1
A: > 7.30

Q: Similarly, CCOc1nn(C2CCN(C3COC3)CC2)cc1-c1cnc2cc1O[C@@H](C)CCOc1c(cnn1C)-c1nccc(n1)N2 ?
A: > 7.30

Q: Further, for C[C@H]1CCOc2c(cnn2C)-c2nccc(n2)Nc2cc(c(-c3cn(CCN4CCCC4)nc3OCC(F)(F)F)cn2)O1 ?
A: > 7.30

Q: Subsequent entry: C[C@H]1CCOc2c(cnn2C)-c2nccc(n2)Nc2cc(c(-c3ccc(N4CCN(C)CC4)nc3)cn2)O1
A: > 7.30

Q: Next molecule: CCCOc1nn(C2CC2)cc1-c1cnc2cc1O[C@@H](C)CCOc1c(cnn1C)-c1nccc(n1)N2
A: > 7.30

Q: Now the molecule C[C@H]1CCOc2c(cnn2C)-c2nccc(n2)Nc2cc(c(Nc3ccn(C)n3)cn2)O1
A: > 7.30

Q: Further, for C[C@H]1CCOc2c(cnn2C)-c2nccc(n2)Nc2cc(c(-c3cc(CN4CCOCC4)n(C)n3)cn2)O1 ?
A: > 7.30

Q: Same for COc1cc(-c2cnc3cc2O[C@@H](C)CCOc2c(cnn2C)-c2nccc(n2)N3)cnc1N1CCN(C)CC1
A: > 7.30

Q: Then C[C@H]1CCOc2c(cnn2C)-c2nccc(n2)Nc2cc(c(Cl)cn2)O1 ?
A: 7.00 to 7.30

Q: Same lookup for CCOc1cc(-c2cnc3cc2O[C@@H](C)CCOc2c(cnn2C)-c2nccc(n2)N3)ccc1CN1CCN(C)CC1 , please.
A: > 7.30

Data origin: patent US20240150375A1
